Recorded polymerase ribozyme fitness (log ratio), one value per entry.
B1: TPR 5TU (parent)
chain: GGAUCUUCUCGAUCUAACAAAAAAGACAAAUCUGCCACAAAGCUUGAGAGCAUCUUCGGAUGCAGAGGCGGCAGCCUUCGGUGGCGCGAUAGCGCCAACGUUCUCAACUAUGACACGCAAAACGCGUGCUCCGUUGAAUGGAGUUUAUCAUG

# Variants of: B1
# experiment: polymerase ribozyme fitness, log enrichment relative to wild type (log ratio); higher = more active; in vitro selection for triplet polymerase activity
This sample holds only a part of the variants without activity.

Previously resolved entries follow.
{"variant notation": "C38G G68C C85G G126A U139G G140A C149G", "polymerase ribozyme fitness (log ratio)": "≤ -4.2"}
{"variant notation": "C114G G124C", "polymerase ribozyme fitness (log ratio)": -4.13}
{"variant notation": "G34C A39G A49C A97U", "polymerase ribozyme fitness (log ratio)": "≤ -4.2"}
{"variant notation": "A29C A39C U53A A122G C123A U135G U146A", "polymerase ribozyme fitness (log ratio)": "≤ -4.2"}

Input: Endpoint output: polymerase ribozyme fitness (log ratio) of A23C C79A C103U A138G G143C . Value?
Output: ≤ -4.2

Input: Endpoint output: polymerase ribozyme fitness (log ratio) of A12U C27U C38U G59U C63A C93A . Value?
Output: -4.12
